Reported Ki values for the following molecules.
Target: Rhodesain (Trypanosoma brucei rhodesiense)
Sequence (Q95PM0 whole entry): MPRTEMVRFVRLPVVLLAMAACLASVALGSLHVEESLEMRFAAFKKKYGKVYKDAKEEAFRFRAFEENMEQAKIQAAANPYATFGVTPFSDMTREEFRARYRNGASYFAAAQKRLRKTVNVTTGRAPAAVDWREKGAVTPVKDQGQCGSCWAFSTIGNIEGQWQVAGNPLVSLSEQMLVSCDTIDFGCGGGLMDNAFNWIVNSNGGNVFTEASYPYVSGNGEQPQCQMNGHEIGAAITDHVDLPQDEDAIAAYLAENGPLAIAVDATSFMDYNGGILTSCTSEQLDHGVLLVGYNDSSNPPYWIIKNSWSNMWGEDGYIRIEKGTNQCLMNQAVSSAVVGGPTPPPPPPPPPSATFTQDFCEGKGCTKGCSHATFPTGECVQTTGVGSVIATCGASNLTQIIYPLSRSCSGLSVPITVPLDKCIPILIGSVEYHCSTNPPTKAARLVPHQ
Assay: Inhibition of Trypanosoma brucei rhodesiense rhodesain
Details: read-out: Ki

Worked cases, Ki given:
>  <smiles_str>
COc1ccc(-c2c3cc4c(cc3cc(=O)n2NC(=O)OC(C)(C)C)OCO4)cc1

>  <Ki>
19.4 µM

$$$$
>  <smiles_str>
CC(=O)Oc1cc2cc3c(cc2c(-c2ccc(N)cc2)n1)OCO3

>  <Ki>
38.3 µM

$$$$
>  <smiles_str>
COc1ccc(-c2c3cc4c(cc3cc(=O)n2NC(=O)Nc2ccc(C(C)=O)cc2)OCO4)cc1

>  <Ki>
14 µM

$$$$

Look at this molecule and give its reported Ki. CCOC(=O)Nn1c(-c2ccc(OC)cc2)c2cc3c(cc2cc1=O)OCO3
9.4 µM

Note, next up: COc1ccc(-c2c3cc4c(cc3cc(=O)n2N)OCO4)cc1
6.3 µM

Would you kindly repeat that for Cc1cc2cc3c(cc2c(-c2ccc(N)cc2)n1)OCO3 ?
19.4 µM

Another molecule: COc1ccc(-c2c3cc(OCc4ccccc4)c(OCc4ccccc4)cc3cc(=O)n2N)cc1
4 µM

How about this molecule: COc1ccc(-c2c3cc4c(cc3cc(=O)n2NC(=O)Nc2ccc(SC)cc2)OCO4)cc1
18.7 µM

Reference source for all entries: ChEMBL document CHEMBL1152574
